Attribution: patent US20090143441A1

Below is a list of entries, each paired with its recorded PPARγ ligand binding (Fluormone displacement signal) value.
# Tgt: PPARγ (Homo sapiens, UniProt P37231)
# Construct: purchased Invitrogen Corporation, Carlsbad, Calif
# Sequence (P37231 238-503 limits assumed): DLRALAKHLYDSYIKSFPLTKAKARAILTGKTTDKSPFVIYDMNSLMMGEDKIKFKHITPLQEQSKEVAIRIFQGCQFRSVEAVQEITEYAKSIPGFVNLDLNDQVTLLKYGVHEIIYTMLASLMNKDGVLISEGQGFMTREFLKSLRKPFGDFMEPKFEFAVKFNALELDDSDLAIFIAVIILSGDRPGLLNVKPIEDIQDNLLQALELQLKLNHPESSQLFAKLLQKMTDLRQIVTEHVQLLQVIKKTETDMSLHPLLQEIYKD
# Test Protocol: Commercial PPARγ binding assay (Invitrogen, PPAR-LBD/Fluormone PPAR Green complex)
# Experimental Parameters: compound at 100 μM; average (SEM) of three experiments in quadruplicate

Some molecules with recorded PPARγ ligand binding (Fluormone displacement signal):
{"columns": ["Molecule", "Result"],
 "data": [
  ["CCc1ccc(CCOc2ccc(CC3(C)SC(=O)NC3=O)cc2)nc1 (stereo not drawn) [Compound 6]", "99 (12)"],
  ["CCc1ccc(C(=CC(=O)OC)COc2ccc(CC3SC(=O)NC3=O)cc2)nc1 (stereo not drawn) [Compound 11]", "78 (3)"],
  ["CCc1ccc(CCOc2ccc(CC3(C)SC(=O)NC3=O)cc2)nc1 (stereo not drawn) [Compound 7]", "105 (10)"],
  ["CCc1ccc(C(=CC(=O)OC)COc2ccc(CC3SC(=O)NC3=O)cc2)nc1 (stereo not drawn) [Compound 3]", "77 (7)"],
  ["CCc1ccc(C(COc2ccc(CC3SC(=O)NC3=O)cc2)CC(=O)OC)nc1 (stereo not drawn)", "85 (3)"],
  ["CCc1ccc(C(=O)COc2ccc(CC3(C)SC(=O)NC3=O)cc2)nc1 (stereo not drawn)", "93 (3)"]
]}

Given CCc1ccc(CCOc2ccc(CC3(C)SC(=O)NC3=O)cc2)nc1 (stereo not drawn) [Compound 4] , state its recorded PPARγ ligand binding (Fluormone displacement signal).
91 (11)

Then CCc1ccc(C(O)COc2ccc(CC3(C)SC(=O)NC3=O)cc2)nc1 (stereo not drawn) ?
106 (7)

Follow-up entry: CCc1ccc([C@@H](O)COc2ccc(CC3SC(=O)NC3=O)cc2)nc1 (stereo partly drawn)
136 (11)
